For each entry below, report its Killing rate value.
system: diamond backmoth (Plutella xylostera); test: Insecticidal effect on larvae of diamond backmoth (cabbage leaf dip); format: in vivo; details: 500 ppm; cabbage leaf immersed 1 minute; third-instar larvae; fourth day; 25° C.
One number for each entry, in %.

Before answering, review these 4 worked examples.
COC=C(C(=O)OC)c1c(C#Cc2cc(C(F)(F)F)cc(C(F)(F)F)c2)c(C)nn1C | 100
CO/C=C(/C(=O)OC)c1c(C#Cc2cc(F)cc(F)c2)c(C)nn1C | 100
CO/C=C(/C(=O)OC)c1c(CON=C(C)c2ccc(OC(F)(F)F)cc2)c(C)nn1C | 100
CO/C=C(/C(=O)OC)c1c(C#Cc2cc(F)cc(Cl)c2)c(C)nn1C | 80

For every record below, what is its Killing rate?
1. CCc1nn(C)c(/C(=N\OC)C(=O)OC)c1CON=C(C)c1cccc(OC(F)F)c1
2. CO/C=C(/C(=O)OC)c1c(OCc2cc(C(F)(F)F)cc(C(F)(F)F)c2)c(C)nn1C
3. CO/C=C(/C(=O)OC)c1c(C#Cc2ccc(Oc3ccc(C(F)(F)F)cn3)cc2)c(C)nn1C
4. CO/C=C(/C(=O)OC)c1c(C#Cc2ccc(Oc3ccc(C(F)(F)F)cc3)cc2)c(C)nn1C
5. CO/C=C(/C(=O)OC)c1c(OCc2ccc(C(F)(F)F)cc2)c(C)nn1C
6. CO/C=C(/C(=O)OC)c1c(OCc2cccc(Oc3ccc(C(F)(F)F)cc3)c2)c(C)nn1C
7. CCn1nc(C)c(C#Cc2cc(C(F)(F)F)cc(C(F)(F)F)c2)c1/C(=C/OC)C(=O)OC
8. COC=C(C(=O)OC)c1c(C#Cc2ccc(C(F)(F)F)cc2)c(C)nn1C

Ans:
[100, 87, 100, 100, 90, 100, 90, 80]

For every record below, what is its Killing rate?
1. CO/C=C(/C(=O)OC)c1c(C#Cc2cccc(C(F)(F)F)c2)c(C)nn1C
2. CO/C=C(/C(=O)OC)c1c(C#Cc2ccc(Oc3ccc(F)cc3Cl)cc2)c(C)nn1C
3. CO/C=C(/C(=O)OC)c1c(OCc2ccc(C(C)(C)C)cc2)c(C)nn1C
4. CCc1nn(C)c(/C(=C\OC)C(=O)OC)c1C#Cc1cc(C(F)(F)F)cc(C(F)(F)F)c1
5. CO/C=C(/C(=O)OC)c1c(C#Cc2ccc(Oc3cc(C(F)(F)F)cc(C(F)(F)F)c3)cc2)c(C)nn1C

Ans:
1. 60
2. 100
3. 70
4. 74
5. 100

* * *

tested on: diamond backmoth (Plutella xylostera); experiment: Insecticidal effect on larvae of diamond backmoth (cabbage leaf dip); type: in vivo; conditions: 500 ppm; cabbage leaf immersed 1 minute; third-instar larvae; fourth day; 25° C.
property: Killing rate (%)
Give bare numbers, in %.

Before answering, review these 3 worked examples.
CO/C=C(/C(=O)OC)c1c(C#Cc2ccc(OC(F)(F)F)cc2)c(C)nn1C | 85
CCc1nn(C)c(/C(=N\OC)C(=O)OC)c1CON=C(C)c1ccc(C(F)(F)F)cc1 | 100
CO/C=C(/C(=O)OC)c1c(C#Cc2cc(C(F)(F)F)cc(C(F)(F)F)c2)c(C(C)C)nn1C | 89

Here is another molecule to look at.
Q: Given the molecule CCn1nc(C)c(C#Cc2cc(C(F)(F)F)cc(C(F)(F)F)c2)c1C(=COC)C(=O)OC , what is its reported Killing rate?
Ans: 100
